The values you see were collected from patent US9926297B2.

STUDY SYSTEM: human muscarinic M4 receptor (Homo sapiens)
Construct: expressed in transfected cells
Sequence (P08173 1-479): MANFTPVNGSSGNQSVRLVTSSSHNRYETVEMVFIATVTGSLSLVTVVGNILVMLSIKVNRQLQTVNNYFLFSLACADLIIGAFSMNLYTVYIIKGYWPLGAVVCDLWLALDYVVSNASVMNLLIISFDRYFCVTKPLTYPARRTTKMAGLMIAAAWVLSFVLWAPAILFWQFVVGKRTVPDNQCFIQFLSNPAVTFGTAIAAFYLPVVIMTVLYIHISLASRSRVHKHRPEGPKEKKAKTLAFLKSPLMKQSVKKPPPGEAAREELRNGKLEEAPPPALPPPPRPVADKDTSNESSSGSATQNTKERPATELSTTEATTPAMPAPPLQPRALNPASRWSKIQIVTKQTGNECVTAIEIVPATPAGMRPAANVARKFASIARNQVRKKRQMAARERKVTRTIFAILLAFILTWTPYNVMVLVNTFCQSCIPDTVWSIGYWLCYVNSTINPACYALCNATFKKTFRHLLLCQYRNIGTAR
PROCEDURE SUMMARY: Alphascreen Surefire phospho-ERK1/2 functional assay, M4
Assay type: cell-based
TEST CONDITIONS: CHO, read-out: % Emax cf. ACh, M4, CHO cells stably expressing human M4; relative to ACh
ATTRIBUTE MEASURED: Emax (%)

>>> df
                                   compound  attribute_measured  unit_tag  numeric_readout
0  CCOC(=O)N1CCC2(CC(N3CCC(c4nnc[nH]4)CC3)C2)C1 (single isomer, unassigned) [1-26 Isomer 2]                Emax         %               76

I. CCOC(=O)N1CCC2(CC(N3CCC(c4nnco4)CC3)C2)C1 (single isomer, unassigned) [1-28 Isomer 2]
II. CCOC(=O)N1CCC2(CC(N3CCC(c4nc(C)cn4C)CC3)C2)C1 (single isomer, unassigned) [1-12 Isomer 2]
Which one would you say has the larger Emax value: I , or II ? Which one? Tell me its label.
II

* * *

STUDY SYSTEM: human muscarinic M2 receptor (Homo sapiens)
PROCEDURE SUMMARY: Alphascreen Surefire phospho-ERK1/2 functional assay, M2
TEST CONDITIONS: CHO, read-out: % Emax cf. ACh, M2, CHO cells stably expressing human M2; relative to ACh
ATTRIBUTE MEASURED: Emax (%)

For orientation, consider the following solved cases.
                                   compound  attribute_measured  numeric_readout
0  CCOC(=O)N1CCC2(CC(N3CCC([C@@H]4CCCN4C(=O)NCCF)CC3)C2)C1 (single isomer, unassigned) [2-44 Isomer 2]                Emax                4
1  CCOC(=O)N1CCC2(CC(N3CCC([C@@H]4CCCN4C(=O)C4CCC4)CC3)C2)C1 (single isomer, unassigned) [2-9 Isomer 2]                Emax                4

I. CCOC(=O)N1CCC2(CC(N3CCC([C@@H]4CCCN4C(=O)NC4(C)CCC4)CC3)C2)C1 (single isomer, unassigned) [2-35 Isomer 2]
II. CCOC(=O)N1CCC2(CC(N3CCC(N4CCCCCC4C(=O)OC)CC3)C2)C1 (single isomer, unassigned) [5-2 Isomer 2]
Quick check, higher Emax between I and II ? // return label of chosen record
II
(II: 5%, I: 1%)

* * *

STUDY SYSTEM: human muscarinic M1 receptor (Homo sapiens, UniProt P11229)
Sequence (P11229 whole entry): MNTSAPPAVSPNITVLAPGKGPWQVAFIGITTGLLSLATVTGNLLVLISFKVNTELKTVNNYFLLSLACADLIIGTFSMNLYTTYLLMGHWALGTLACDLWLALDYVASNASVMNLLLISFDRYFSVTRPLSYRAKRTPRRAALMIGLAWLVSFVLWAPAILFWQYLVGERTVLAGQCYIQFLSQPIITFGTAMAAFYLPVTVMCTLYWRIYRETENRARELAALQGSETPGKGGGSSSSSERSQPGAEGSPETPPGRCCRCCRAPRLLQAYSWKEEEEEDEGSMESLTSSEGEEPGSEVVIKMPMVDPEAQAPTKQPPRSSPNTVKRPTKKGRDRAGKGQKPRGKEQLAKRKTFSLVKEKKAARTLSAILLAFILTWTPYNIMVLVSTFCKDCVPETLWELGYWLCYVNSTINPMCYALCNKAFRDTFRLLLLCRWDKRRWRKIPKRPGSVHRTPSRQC
PROCEDURE SUMMARY: Alphascreen Surefire phospho-ERK1/2 functional assay, M1
Type: cell-based
TEST CONDITIONS: CHO cells stably expressing human M1; phospho-ERK1/2; * = variable results; read-out: pEC50 M1 (converted)
ATTRIBUTE MEASURED: EC50 (nM)

Study these solved cases before continuing.
>>> print(df.to_string())
                                   compound  numeric_readout
0  COC(=O)N1CCC2(CC(N3CCC(n4ccc(C)n4)CC3)C2)C1 (single isomer, unassigned) [1-45 Isomer 2]              316
1  COC(=O)N1CCC2(CC(N3CCC(c4c(C)cnn4C)CC3)C2)C1 (single isomer, unassigned) [1-57 Isomer 2]             2000
2  CCOC(=O)N1CCC2(CC(N3CCC(c4nccn4CC#N)CC3)C2)C1 (single isomer, unassigned) [1-52 Isomer 2]              158
3  CCOC(=O)N1CCC2(CC(N3CCC(N4CCC[C@@H]4C(F)(F)F)CC3)C2)C1 (single isomer, unassigned) [2-104 Isomer 2]             79.4
4  CCOC(=O)N1CCC2(CC(N3CCC(n4cccc4)CC3)C2)C1 (single isomer, unassigned) [1-32 Isomer 2]             79.4
5  CCOC(=O)N1CCC2(CC(N3CCC(N4C(=O)CC[C@@H]4CC)CC3)C2)C1 (single isomer, unassigned) [2-116 Isomer 2]             63.1

I. CCOC(=O)N1CCC2(CC(N3CCC(C4CCCN4C(=O)NOC)CC3)C2)C1 (single isomer, unassigned) [2-24 Isomer 2]
II. CCOC(=O)N1CCC2(CC(N3CCC([C@@H]4CCCN4CCOC)CC3)C2)C1 (single isomer, unassigned) [2-71 Isomer 2]
III. [2H]C([2H])([2H])COC(=O)N1CCC2(CC(N3CCC(n4cccn4)CC3)C2)C1 (single isomer, unassigned) [1-69 Isomer 2]
I would appreciate it if you could sort these 3 compounds by EC50, starting from the smallest number. Put the labels in the requested order and write them down.
III, I, II
(III: 79.4 nM, I: 631 nM, II: 5010 nM)

* * *

STUDY SYSTEM: human muscarinic M2 receptor (Homo sapiens, UniProt P08172)
Sequence (P08172 1-466): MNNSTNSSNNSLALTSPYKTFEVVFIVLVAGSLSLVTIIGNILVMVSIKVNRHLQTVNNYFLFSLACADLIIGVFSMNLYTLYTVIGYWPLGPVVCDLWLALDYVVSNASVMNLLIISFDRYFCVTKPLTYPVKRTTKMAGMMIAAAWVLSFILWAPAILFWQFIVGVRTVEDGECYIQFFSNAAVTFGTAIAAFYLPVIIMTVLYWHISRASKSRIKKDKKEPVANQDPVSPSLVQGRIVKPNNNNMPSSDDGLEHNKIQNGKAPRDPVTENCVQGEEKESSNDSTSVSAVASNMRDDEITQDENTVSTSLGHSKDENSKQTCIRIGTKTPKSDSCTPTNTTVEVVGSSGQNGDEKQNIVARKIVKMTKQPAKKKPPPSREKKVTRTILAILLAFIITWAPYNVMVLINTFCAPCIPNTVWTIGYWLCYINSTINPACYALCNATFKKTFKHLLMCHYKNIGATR
PROCEDURE SUMMARY: Alphascreen Surefire phospho-ERK1/2 functional assay, M2
TEST CONDITIONS: CHO, read-out: % Emax cf. ACh, M2, CHO cells stably expressing human M2; relative to ACh
ATTRIBUTE MEASURED: Emax (%)

Illustrative cases are given below, each with its answer.
>>> print(df.to_string())
                                   compound  numeric_readout
0  CCOC(=O)N1CCC2(CC(N3CCC(c4ccnn4CC)CC3)C2)C1 (single isomer, unassigned) [1-47 Isomer 2]               82
1  CCOC(=O)N1CCC2(CC(N3CCC([C@@H]4CCCN4C(=O)NOC)CC3)C2)C1 (single isomer, unassigned) [2-33 Isomer 1]                8
2  CCOC(=O)N1CCC2(CC(N3CCC([C@@H]4CCCN4C(=O)CCc4ccccn4)CC3)C2)C1 (single isomer, unassigned) [2-62 Isomer 2]                6

a. CCOC(=O)N1CCC2(CC(N3CCC(c4ncc[nH]4)CC3)C2)C1 (single isomer, unassigned) [1-1 Isomer 2]
b. CCOC(=O)N1CCC2(CC(N3CCC(N4CC(F)(F)C[C@@H]4C(=O)N(C)OC)CC3)C2)C1 (single isomer, unassigned) [2-92 Isomer 2]
Rank a against b by their Emax values and give the higher one. Return value: the label identifying the chosen record.
a

P. CCOC(=O)N1CCC2(CC(N3CCC([C@@H]4CCCN4c4ccccn4)CC3)C2)C1 (single isomer, unassigned) [2-79 Isomer 2]
Q. CCOC(=O)N1CCC2(CC(N3CCC(c4nn(C)cc4C)CC3)C2)C1 (single isomer, unassigned) [1-56 Isomer 2]
R. CCOC(=O)N1CCC2(CC(N3CCC([C@@H]4CCCN4C(=O)N4CCOCC4)CC3)C2)C1 (single isomer, unassigned) [2-28 Isomer 2]
S. CCOC(=O)N1CCC2(CC(N3CCC([C@@H]4CCCN4C(=O)NC4COC4)CC3)C2)C1 (single isomer, unassigned) [2-56 Isomer 2]
List by increasing Emax. Write the labels, ordered according to the request.
Q, P, R, S

I. CCOC(=O)N1CCC2(CC(N3CCC(c4cnc(OC)cc4C)CC3)C2)C1 (single isomer, unassigned) [3-6 Isomer 2]
II. CCOC(=O)N1CCC2(CC(N3CCC([C@@H]4CCCN4C(=O)OCCN(C)C)CC3)C2)C1 (single isomer, unassigned) [2-51 Isomer 2]
III. CCOC(=O)N1CCC2(CC(N3CCC(N4C(=O)CCC4(C)C)CC3)C2)C1 (single isomer, unassigned) [2-117 Isomer 2]
IV. CCOC(=O)N1CCC2(CC(N3CCC([C@@H]4CCCN4c4ccccc4)CC3)C2)C1 (single isomer, unassigned) [2-77 Isomer 2]
Rank by Emax (largest to smallest). Give your ranking as a list of the labels in the requested order.
IV, III, II, I
(IV: 14%, III: 4%, II: 1%, I: 0%)
